- Tested on: CEM cells HIV-1 protection, formazan growth assay
- ASSAY_OVERVIEW: NCI AIDS Antiviral Assay;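 active means compounds giving half or more protection of infected cells from virus-caused growth loss, again on retest; inactive means the rest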
Please answer using one outcome listed in true (1) = active, false (0) = inactive

A selection of reference data follows.
CC(C)(c1cc(Cl)c(O)c(CN2CCOCC2)c1)c1cc(Cl)c(O)c(CN2CCOCC2)c1 :: false (0)
CC1=Nc2ccccc2C12C(c1ccccc1)CC(=O)N1c3ccccc3CC12 (stereo unspecified) :: false (0)
CCOc1nc(C(=O)O)cc2ccsc12 :: false (0)
CC1C(c2ccccc2O)c2cc3c(cc2OC1N1CCOCC1)OCO3 (stereo unspecified) :: false (0)
O=C1OC(=O)C2C1C(c1ccc(Cl)cc1)N1C3C(=O)OC(=O)C3C(c3ccc(Cl)cc3)N21 (stereo unspecified) :: false (0)

Give the logged outcome of this assay for the following compound: CCOC(=O)C1=C(C)C2C=C(c3cccs3)CC(c3ccc(Cl)cc3)=C2OC1=O (stereo unspecified)
false (0)

Lab log entry: "CCOC(=O)C[C@@H]1C2(C=C[C@@]13CO3)OCC(C)(C)CO2" — outcome as called in the assay?
false (0)

Write down the call the test reported for this compound. Item: CC(C)CC1[C@@H](OCc2ccccc2)COS(=O)N1Cc1ccccc1 (stereo partly specified)
false (0)

Assay result, entry CC(C)CCC[C@@H](C)[C@H]1CC[C@H]2[C@@H]3CCC4C[C@@H](CCC=C(c5cc(Cl)c(OCc6ccccc6C(=O)O)c(C(=O)O)c5)c5cc(Cl)c(OCc6ccccc6C(=O)O)c(C(=O)O)c5)CC[C@]4(C)[C@H]3CC[C@]12C (stereo partly specified) — outcome?
true (1)

For "O=C1OCc2c1[nH]c(=O)[nH]c2=O" , which call appears in the assay record?
false (0)

Please let me know the test result on file for CC1=C[C@H]2O[C@@H]3C[C@H]4OC(=O)/C=C\C=C\C(C(C)O)OCC(O)C(C)CC(=O)OC[C@@]2(C[C@@H]1O)[C@]4(C)[C@@]31CO1 (stereo partly specified) .
false (0)

----------
- Tested on: CEM cells HIV-1 protection, formazan growth assay
- ASSAY_OVERVIEW: NCI AIDS Antiviral Assay
OBSERVABLE: EC50

Oc1[nH]c2ccccc2c1N=Nc1nc(-c2ccccc2)cs1 :: > 200 µM

Respectfully, I request EC50 for each entry included below.
1. CSc1nc2c(nc(C)c(=O)n2C2OCC(OC(C)=O)C(OC(C)=O)C2OC(C)=O)c(=O)[nH]1 (stereo unspecified)
2. CCCCN(CCCC)CCCNc1c2c(nc3cc(Cl)ccc13)CCCC2
3. Cc1c(Cc2ccc(Cl)cc2)c(=O)[nH]c(=O)n1C

1: > 513 µM; 2: > 200 µM; 3: > 97.7 µM

Give EC50 for each listed item.
1. CC(NC(=O)OC(C)(C)C)C(=O)NC(Cc1ccccc1)C(=O)NCC(=O)ON=C1CCCC1 (stereo unspecified)
2. O=C1c2ccccc2C(=O)N1n1c(Cc2ccc(Cl)cc2)n[nH]c1=O
3. Cc1cc(=O)oc2c(CNC(C)C(=O)O)c(O)ccc12 (stereo unspecified)
4. c1ccc(N=C2SC(=NC3CCCCC3)N(C3CCCCC3)C2=Nc2ccccc2)cc1
5. CS/C(c1ccccc1)=[N+](/C)[O-]
6. Nc1nc2c(ncn2C2C=CC(COS(N)(=O)=O)C2)c(=O)[nH]1 (stereo unspecified)
7. CC/C(=C(\CC)c1ccc(OCCCN2CCCCC2C)cc1)c1ccc(OCCCN2CCCCC2C)cc1 (stereo unspecified)

["> 200 µM", "> 200 µM", "> 200 µM", "> 200 µM", "> 813 µM", "> 200 µM", "> 20 µM"]
